pEC50 values for the compounds below.
Target: Nuclear receptor ROR-beta (Homo sapiens)
Assay: Inverse agonist activity at RORbeta (unknown origin)
pEC50: −log10 of the molar value.
Measured property: pEC50

1) [2H]C([2H])([2H])N(C(=O)c1c(C)cccc1F)c1ccc(-c2cc(NC(C)=O)nn2C(C)C)cc1N1CC2CC2C1 (stereo not given); 5.82
2) CC(=O)Nc1nc(C(C)C)c(-c2cnc(N(C)C(=O)c3c(F)cccc3Cl)c(N3CCCCC3)c2)s1; 6.10
3) [2H]C([2H])([2H])N(C(=O)c1c(F)cccc1Cl)c1ccc(-c2cc(NC(C)=O)nn2C(C)C)cc1OCC1CCC1; 6.05
4) [2H]C([2H])([2H])N(C(=O)c1c(F)cccc1Cl)c1ccc(-c2cc(NC(C)=O)nn2C(C)C)cc1N1CCCC1; 6.00
5) CC(=O)Nc1cc(-c2ccc(N(C)C(=O)c3c(F)cccc3Cl)c(N3CC4CC4C3)c2)n(C(C)C)n1 (stereo not given); 5.77
6) [2H]C([2H])([2H])N(C(=O)c1c(F)cccc1Cl)c1ccc(-c2cc(NC(C)=O)nn2C(C)C)cc1N1CC2CC2C1 (stereo not given); 5.89
7) [2H]C([2H])([2H])N(C(=O)c1c(F)cccc1Cl)c1ncc(-c2cc(NC(C)=O)nn2C(C)C)cc1N1CC2CC2C1 (stereo not given); 5.21
8) [2H]C([2H])([2H])N(C(=O)c1c(F)cccc1Cl)c1ccc(-c2cc(NC(C)=O)nn2C2CCCC2)cc1N1CC2CC2C1 (stereo not given); 5.89
9) [2H]C([2H])([2H])N(C(=O)c1c(F)cccc1Cl)c1ccc(-c2cc(NC(C)=O)nn2C(C)C2CC2)cc1N1CC2CC2C1 (stereo not given); 5.89
10) [2H]C([2H])([2H])N(C(=O)c1c(F)cccc1Cl)c1ccc(-c2cc(NC(C)=O)nn2C(C)C)cc1N1CCCCC1; 6.10

----------
Biological target: Nuclear receptor ROR-beta (Homo sapiens, UniProt Q92753)
Sequence (Q92753 whole entry): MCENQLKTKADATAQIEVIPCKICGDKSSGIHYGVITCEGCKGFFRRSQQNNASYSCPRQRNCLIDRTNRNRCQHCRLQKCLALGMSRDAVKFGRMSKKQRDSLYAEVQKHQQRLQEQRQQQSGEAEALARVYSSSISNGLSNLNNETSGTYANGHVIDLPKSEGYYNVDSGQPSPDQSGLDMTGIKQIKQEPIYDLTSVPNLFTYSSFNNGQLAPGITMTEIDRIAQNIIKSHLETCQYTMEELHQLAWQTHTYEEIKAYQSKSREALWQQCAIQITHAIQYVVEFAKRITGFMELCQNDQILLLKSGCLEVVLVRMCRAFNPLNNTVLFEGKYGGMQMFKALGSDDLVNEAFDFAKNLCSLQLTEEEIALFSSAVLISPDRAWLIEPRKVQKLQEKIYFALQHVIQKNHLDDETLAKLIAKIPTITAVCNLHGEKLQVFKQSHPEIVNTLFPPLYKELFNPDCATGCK
Assay: Inverse agonist activity at RORbeta (unknown origin)
Below, each entry is listed alongside its reported EC50.
Measured property: EC50 (nM)

1. CC(=O)Nc1cc(-c2cnc(N(C)C(=O)c3c(F)cccc3Cl)c(N3CCCCC3)c2)n(C(C)C)n1; 2300
2. [2H]C([2H])([2H])N(C(=O)c1c(F)cccc1Cl)c1ccc(-c2cc(NC(C)=O)nn2C(C)C)cc1-c1ccccc1; 1100
3. [2H]C([2H])([2H])N(C(=O)c1c(F)cccc1Cl)c1ccc(-c2cc(NC(C)=O)nn2CC2CC2)cc1N1CC2CC2C1 (centres undefined); 1800
4. [2H]C([2H])([2H])N(C(=O)c1c(Cl)cccc1Cl)c1ccc(-c2cc(NC(C)=O)nn2C(C)C)cc1N1CC2CC2C1 (centres undefined); 600

----------
Test: Kinetic aqueous solubility of the compound
Format: physicochemical
Conditions: buffer; read-out: Kinetic_solubility
Measured property: solubility kinetic (µg/mL)

1) [2H]C([2H])([2H])N(C(=O)c1c(F)cccc1Cl)c1ccc(-c2cc(NC(C)=O)nn2CC(C)(C)C)cc1N1CC2CC2C1 (stereo unspecified); 0.8
2) CC(=O)Nc1nc(C(C)C)c(-c2cnc(N(C)C(=O)c3c(F)cccc3Cl)c(N3CCCCC3)c2)s1; 0.3
3) [2H]C([2H])([2H])N(C(=O)c1c(F)cccc1Cl)c1ccc(-c2cc(NC(C)=O)nn2C2CCC2)cc1N1CC2CC2C1 (stereo unspecified); 0.5
4) CC(=O)Nc1cc(-c2cnc(N(C)C(=O)c3c(F)cccc3Cl)c(N3CCCCC3)c2)n(C(C)C)n1; 37.4
5) [2H]C([2H])([2H])N(C(=O)c1c(F)cccc1Cl)c1ccc(-c2cc(C(N)=O)ccc2Cl)cc1OCC(F)(F)F; 0.3
6) [2H]C([2H])([2H])N(C(=O)c1c(F)cccc1Cl)c1ccc(-c2cc(NC(C)=O)nn2C(C)C)cc1N1CCCCC1; 1.3

----------
Test: AUC in po dosed rat
Assay type: ADME, organism-based
Details: in vivo
Measured property: AUC (ng·h/mL)

1. [2H]C([2H])([2H])N(C(=O)c1c(F)cccc1Cl)c1ccc(-c2cc(C(N)=O)ccc2Cl)cc1OCC(F)(F)F; 3130

----------
// EC50 lookup, one value per entry
Biological target: Nuclear receptor ROR-alpha (Homo sapiens)
Sequence (P35398 whole entry): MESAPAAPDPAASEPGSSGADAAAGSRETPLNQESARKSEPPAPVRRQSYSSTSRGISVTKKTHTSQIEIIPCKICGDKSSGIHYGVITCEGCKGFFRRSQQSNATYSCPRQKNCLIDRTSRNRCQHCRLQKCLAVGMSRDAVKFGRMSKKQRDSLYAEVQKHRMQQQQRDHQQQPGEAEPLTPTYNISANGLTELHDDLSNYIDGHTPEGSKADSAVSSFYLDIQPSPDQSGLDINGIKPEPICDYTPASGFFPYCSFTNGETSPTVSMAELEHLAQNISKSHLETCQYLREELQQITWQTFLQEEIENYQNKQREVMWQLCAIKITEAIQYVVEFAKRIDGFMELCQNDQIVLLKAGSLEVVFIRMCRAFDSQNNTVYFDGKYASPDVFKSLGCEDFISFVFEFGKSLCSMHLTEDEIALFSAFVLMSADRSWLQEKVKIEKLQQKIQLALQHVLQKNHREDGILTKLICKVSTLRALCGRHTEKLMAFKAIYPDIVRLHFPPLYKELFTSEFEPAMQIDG
Experiment: Inverse agonist activity at RORalpha (unknown origin)
Measured property: EC50 (nM)

1. CC(=O)Nc1cc(-c2cnc(N(C)C(=O)c3c(F)cccc3Cl)c(N3CCCCC3)c2)n(C(C)C)n1; 9300
2. [2H]C([2H])([2H])N(C(=O)c1c(F)cccc1Cl)c1ccc(-c2cc(NC(C)=O)nn2C(C)C)cc1OCC1CCC1; 1200
3. [2H]C([2H])([2H])N(C(=O)c1c(F)cccc1Cl)c1ccc(-c2cc(NC(C)=O)nn2C(C)C)cc1N1CC2CC2C1 (centres undefined); 1600
4. [2H]C([2H])([2H])N(C(=O)c1c(F)cccc1Cl)c1ccc(-c2cc(NC(C)=O)nn2C(C)C)cc1-c1ccccc1; 2100
5. [2H]C([2H])([2H])N(C(=O)c1c(Cl)cccc1Cl)c1ccc(-c2cc(NC(C)=O)nn2C(C)C)cc1N1CC2CC2C1 (centres undefined); 1500
6. [2H]C([2H])([2H])N(C(=O)c1c(F)cccc1Cl)c1ccc(-c2cc(NC(C)=O)nn2C(C)C)cc1N1CCCC1; 1400
7. [2H]C([2H])([2H])N(C(=O)c1c(F)cccc1Cl)c1ccc(-c2cc(NC(C)=O)nn2C(C)C2CC2)cc1N1CC2CC2C1 (centres undefined); 9300
8. CC(=O)Nc1nc(C(C)C)c(-c2cnc(N(C)C(=O)c3c(F)cccc3Cl)c(N3CCCCC3)c2)s1; 2200
9. CC(=O)Nc1cc(-c2ccc(N(C)C(=O)c3c(F)cccc3Cl)c(N3CC4CC4C3)c2)n(C(C)C)n1 (centres undefined); 1900
10. [2H]C([2H])([2H])N(C(=O)c1c(C)cccc1F)c1ccc(-c2cc(NC(C)=O)nn2C(C)C)cc1N1CC2CC2C1 (centres undefined); 2000
11. [2H]C([2H])([2H])N(C(=O)c1c(F)cccc1Cl)c1ccc(-c2cc(NC(C)=O)nn2CC2CC2)cc1N1CC2CC2C1 (centres undefined); 1800
12. [2H]C([2H])([2H])N(C(=O)c1c(F)cccc1Cl)c1ccc(-c2cc(NC(C)=O)nn2C2CCCC2)cc1N1CC2CC2C1 (centres undefined); 1300
13. [2H]C([2H])([2H])N(C(=O)c1c(F)cccc1Cl)c1ccc(-c2cc(NC(C)=O)nn2C(C)C)cc1N1CCCCC1; 1100

----------
Measured AUC(0-t) at 7 h by item
Assay: AUC (0 to 7 hrs) in rat at 10 mg/kg, po
Format: ADME, organism-based
Design: time < 7 hr, dose 10 mg/kg, route oral
Details: in vivo
Measured property: AUC(0-t) at 7 h

1) CC(=O)Nc1cc(-c2cnc(N(C)C(=O)c3c(F)cccc3Cl)c(N3CCCCC3)c2)n(C(C)C)n1; 927 ng·h/mL
2) [2H]C([2H])([2H])N(C(=O)c1c(F)cccc1Cl)c1ccc(-c2cc(NC(C)=O)nn2C(C)C)cc1N1CC2CC2C1 (configuration not stated); 1040 ng·h/mL

----------
Entries annotated with measured fraction unbound
Experiment: Percentage unbound in human plasma
Format: ADME, cell-free
Measured property: fraction unbound

1) [2H]C([2H])([2H])N(C(=O)c1c(F)cccc1Cl)c1ccc(-c2cc(NC(C)=O)nn2C(C)C)cc1N1CC2CC2C1 (configuration not stated); 0.014
2) [2H]C([2H])([2H])N(C(=O)c1c(F)cccc1Cl)c1ccc(-c2cc(NC(C)=O)nn2C(C)C)cc1N1CCCC1; 0.017
3) [2H]C([2H])([2H])N(C(=O)c1c(F)cccc1Cl)c1ccc(-c2cc(NC(C)=O)nn2C2CCC2)cc1N1CC2CC2C1 (configuration not stated); 0.003
4) [2H]C([2H])([2H])N(C(=O)c1c(F)cccc1Cl)c1ccc(-c2cnn(C)c2C(C)C)cc1OCC(F)(F)F; 0.009
5) CC(=O)Nc1cc(-c2ccc(N(C)C(=O)c3c(F)cccc3Cl)c(N3CC4CC4C3)c2)n(C(C)C)n1 (configuration not stated); 0.009
6) [2H]C([2H])([2H])N(C(=O)c1c(F)cccc1Cl)c1ccc(-c2cc(C(N)=O)ccc2Cl)cc1OCC(F)(F)F; 0.003
7) [2H]C([2H])([2H])N(C(=O)c1c(F)cccc1Cl)c1ccc(-c2cc(NC(C)=O)nn2C(C)C)cc1OCC(C)C; 0.003

----------
Assay: Kinetic aqueous solubility of the compound
Format: physicochemical
Conditions: buffer; read-out: Kinetic_solubility
Measured property: solubility kinetic

1) [2H]C([2H])([2H])N(C(=O)c1c(F)cccc1Cl)c1ccc(-c2cc(NC(C)=O)nn2C2CCCC2)cc1N1CC2CC2C1 (configuration not stated); 0.1 µg/mL
2) [2H]C([2H])([2H])N(C(=O)c1c(F)cccc1Cl)c1ccc(-c2cc(C(N)=O)nn2C(C)C)cc1OCC(F)(F)F; 32 µg/mL
3) [2H]C([2H])([2H])N(C(=O)c1c(F)cccc1Cl)c1ccc(-c2cc(NC(C)=O)nn2C(C)C)cc1N1CCCC1; 12 µg/mL
4) [2H]C([2H])([2H])N(C(=O)c1c(C)cccc1F)c1ccc(-c2cc(NC(C)=O)nn2C(C)C)cc1N1CC2CC2C1 (configuration not stated); 17 µg/mL
5) [2H]C([2H])([2H])N(C(=O)c1c(F)cccc1Cl)c1ncc(-c2cc(NC(C)=O)nn2C(C)C)cc1N1CC2CC2C1 (configuration not stated); 48 µg/mL
6) [2H]C([2H])([2H])N(C(=O)c1c(F)cccc1Cl)c1ccc(-c2cc(NC(C)=O)nn2C(C)C)cc1OCC(F)(F)F; 27 µg/mL
7) [2H]C([2H])([2H])N(C(=O)c1c(F)cccc1Cl)c1ccc(-c2cc(NC(C)=O)nn2C(C)C)cc1N1CC2CC2C1 (configuration not stated); 2.1 µg/mL
